Biological target: EBOV GPddmuc (Ebola virus (EBOV)), Q05320
Settings: remark: other sources report otherwise
MEASURE: EC50 (µg/mL)
Quick reminder: number only, in µg/mL, skip the unit.

Here's what some known entries look like.
>>> reading("murine monoclonal antibody 16G8 (antibody, V domains shown) VH: EVQLQESGPGLVKPGASVKISCKASGYSFTGYYMNWVKQSPEKSLEWIGEINPSTGGTTYNQKFKAKATLTVDKSSSTAYMQLKSLTSEDSAVYYCVRYSHYYGSGSWYFDVWGTGTTVTVSS VL: DIQMTQSPASLSASVGETVTITCRASENIYSNLAWYQQKQGKSPQLLVNAATNLADGVPSRFSGSGSGTQFSLKINSLQPEDFGSYYCQHFYVTPYMFGSGTKLEIKR")
1.23
>>> reading("murine monoclonal antibody 17C6 (antibody, V domains shown) VH: EVQLQESGPGLVQPSQSLSITCTVSGFSLTSYGVHWVRQSPGKGLEWLGVIWSGGSTDYNAAFISRLSISKDNSKSQVFFKMNSLQADDTAIYYCARNWFDYDNYYSMDYWGQGTSVTVSS VL: DIQMTQTTSSLSASLGDRVTISCRASQDISNYLNWYQQKPDGTVKLLIYYTSRLHSGVPSRFSGSGSGTDFSLTISNQEPEDIATYYCQQYSNLPWTFGGGTKLEIKR")
0.03

We next turn to a different binder, shown below.
Input murine monoclonal antibody 8C4 (antibody, V domains shown) VH: EVQLQESGPELKKPGETVKISCKASGYTFTTYGMSWVKQAPGKGLKWMGRINTYSGVPTYADEFKGRFAFSLENSASTAYLQINNLKNEDTATYFCARGDGGHWFANWGQGTLVTVSA VL: DIQMTQSPSSLSASLGGKVTITCKASQDINKNIAWYQHKPGKGPRLLIWYKSALQPGIPSRFSGSGSGRDYSFSISNLEPEDIATYSCLQYDNLPPTFGGGTKLEIKR . Output EC50: 0.21

Source of measurements: patent US20180237502A1
